target: full-length human PTPN2 (TC45) (1-387) protein (Homo sapiens (Human), UniProt P17706)
Sequence (P17706 other isoform, or with tags, fused parts or gaps): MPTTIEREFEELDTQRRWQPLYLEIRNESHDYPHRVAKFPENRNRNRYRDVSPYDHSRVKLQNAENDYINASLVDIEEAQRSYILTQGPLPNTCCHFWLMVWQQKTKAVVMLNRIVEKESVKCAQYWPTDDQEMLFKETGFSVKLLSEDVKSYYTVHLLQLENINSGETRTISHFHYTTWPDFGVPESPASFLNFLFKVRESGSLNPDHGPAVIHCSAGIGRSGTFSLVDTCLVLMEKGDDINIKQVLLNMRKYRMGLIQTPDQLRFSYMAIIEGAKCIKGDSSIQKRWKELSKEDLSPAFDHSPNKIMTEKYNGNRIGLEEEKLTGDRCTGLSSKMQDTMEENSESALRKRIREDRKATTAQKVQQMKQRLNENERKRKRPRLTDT
ENDPOINT_LABEL: IC50 (µM)
The reply should be a number in µM, with the unit left off.

Which IC50 is reported for this compound? CC(C)CCNC1CCc2nc(O)c(N3CC(=O)NS3(=O)=O)c(F)c2C1 (stereo not shown)
70.8
